assayed-system: Fyn (UniProt P06241)
Sequence (P06241 whole entry, looked up): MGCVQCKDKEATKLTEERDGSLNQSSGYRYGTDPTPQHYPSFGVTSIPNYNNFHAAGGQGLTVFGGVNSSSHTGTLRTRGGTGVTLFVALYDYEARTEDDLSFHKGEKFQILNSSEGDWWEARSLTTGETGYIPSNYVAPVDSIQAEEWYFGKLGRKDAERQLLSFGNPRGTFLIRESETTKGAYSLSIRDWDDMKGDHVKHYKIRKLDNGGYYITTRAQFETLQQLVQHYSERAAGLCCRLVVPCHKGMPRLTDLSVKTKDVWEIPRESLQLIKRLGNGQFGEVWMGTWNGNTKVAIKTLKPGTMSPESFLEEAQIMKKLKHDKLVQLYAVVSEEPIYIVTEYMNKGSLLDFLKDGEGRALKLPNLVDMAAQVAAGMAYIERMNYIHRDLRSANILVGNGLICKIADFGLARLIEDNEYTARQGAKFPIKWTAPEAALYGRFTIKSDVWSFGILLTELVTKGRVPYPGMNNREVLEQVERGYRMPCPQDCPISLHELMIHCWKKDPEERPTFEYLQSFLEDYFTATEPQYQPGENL
assay-procedure: phosphorylation enrichment, bacterial display (enrichment ratio); higher = better substrate or ligand; peptides without Tyr show the background;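 further: 11-residue human phosphosite peptides and single-mutation variants displayed on the E. coli surface, counted by deep sequencing, each peptide's frequency after selection divided by its frequency in the unselected input library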;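 further: frequency after pTyr selection over input frequency; kinase dosed for 20-30% of maximal phosphorylation in three min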
Here, each record is paired with measured phosphorylation enrichment data.
Number only, no unit.

Some solved entries appear below for comparison.
item-sequence: TMETKYDNISR [SETDB2_Y477_V473M]
phosphorylation enrichment: 0.414
//
item-sequence: ACLSLYGGFVE [MVD_Y164_R161L]
phosphorylation enrichment: 5.43
//
item-sequence: RNNIEYVRDIG [MUSK_Y577]
phosphorylation enrichment: 0.369
//
item-sequence: NTGDFYDLFGG [PTPN11_Y63_YF]
phosphorylation enrichment: 4.89
//
item-sequence: RLDPVYFVAPA [LAMC2_Y250]
phosphorylation enrichment: 11.5

Task: Return reported phosphorylation enrichment. Input sequence: VPTSKYRGGGG [HBA1_Y141_L137P]
Result: 0.452

Task: Return reported phosphorylation enrichment. Input sequence: WLFFRYLPIGC [ATP2A2_Y836_A838P]
Result: 0.38

Task: Return reported phosphorylation enrichment. Input sequence: EEEYEYMNRRR [ERBB3_Y1199_D1194E]
Result: 0.332

Task: Return reported phosphorylation enrichment. Input sequence: KYVVVYFREID [IL17RB_Y447]
Result: 0.486

Task: Return reported phosphorylation enrichment. Input sequence: RWGQKYMTAVV [CYBA_Y72]
Result: 0.488

Task: Return reported phosphorylation enrichment. Input sequence: EEVKAYLDFGE [CHAC2_Y78_R82G]
Result: 0.448

These entries and their values trace back to the supplement of paper PMC10065799.
